Measured UNIT DOSE (2mg/kg IV) | ALONE, listed per entry.
experiment: BUI#77: IN VIVO: IV BRAIN LEVELS @ 1 HOUR post 1 mL x 1 min IV
Where a name gives a salt, the structure may show the parent alone.
Respond numerically; units are nM and should not be typed.

1) CC(C)C[C@@H](N)C(=O)N[C@H](Cc1ccccc1)C(=O)N[C@H](Cc1ccccc1)C(=O)N[C@@H](C(=O)N[C@H](CC(C)C)C(N)=O)C(C)C [578 | 578, TFA. H-(lffvl)-NH2]    2
2) CC(C)C[C@@H](N)C(=O)N[C@H](Cc1c(F)c(F)c(F)c(F)c1F)C(=O)N[C@H](Cc1ccccc1)C(=O)N[C@@H](C(=O)N[C@H](CC(C)C)C(N)=O)C(C)C [PPI-1324, TFA.H-(l-[F5]f-fvl)-NH2]    2
3) CC(C)C[C@@H](N)C(=O)N[C@@H](C(=O)N[C@H](Cc1ccccc1)C(=O)N[C@H](Cc1ccccc1)C(=O)N[C@H](C)C(N)=O)C(C)C [655 | 655, TFA. H-(lvffa)-NH2]    3

Query block: Tell me the measured UNIT DOSE (2mg/kg IV) | ALONE of CN[C@H](CC(C)C)C(=O)N[C@@H](C(=O)N[C@H](Cc1ccccc1)C(=O)N[C@H](Cc1ccccc1)C(=O)N[C@H](C)C(N)=O)C(C)C [1019 | 1019, TFA. N-methyl-(lvffa)-NH2] , please.
Result block: 4

====

Quick reference: MAX SOLUBILITY | Brain Levels (nM) | mean of the listed items.
assay: BUI#77: IN VIVO: IV BRAIN LEVELS @ 1 HOUR post 1 mL x 1 min IV
Where a name gives a salt, the structure may show the parent alone.
Report the value in nM with no unit label.

Example compounds with recorded MAX SOLUBILITY | Brain Levels (nM) | mean:
1. CC(C)C[C@@H](N)C(=O)N[C@H](Cc1c(F)c(F)c(F)c(F)c1F)C(=O)N[C@H](Cc1ccccc1)C(=O)N[C@@H](C(=O)N[C@H](CC(C)C)C(N)=O)C(C)C [PPI-1324, TFA.H-(l-[F5]f-fvl)-NH2]    4.1
2. CC(C)C[C@@H](N)C(=O)N[C@H](Cc1ccccc1)C(=O)N[C@H](Cc1ccccc1)C(=O)N[C@@H](C(=O)N[C@H](CC(C)C)C(N)=O)C(C)C [578 | 578, TFA. H-(lffvl)-NH2]    7.6
3. CC(C)C[C@@H](N)C(=O)N[C@@H](C(=O)N[C@H](Cc1ccccc1)C(=O)N[C@H](Cc1ccccc1)C(=O)N[C@H](C)C(N)=O)C(C)C [655 | 655, TFA. H-(lvffa)-NH2]    7.9

# context switch: different compound, same MAX SOLUBILITY | Brain Levels (nM) | mean
Query block: What value of MAX SOLUBILITY | Brain Levels (nM) | mean has been reported for the following compound? CN[C@H](CC(C)C)C(=O)N[C@@H](C(=O)N[C@H](Cc1ccccc1)C(=O)N[C@H](Cc1ccccc1)C(=O)N[C@H](C)C(N)=O)C(C)C [1019 | 1019, TFA. N-methyl-(lvffa)-NH2]
Result block: 7.2

====

Below is a list of entries, each paired with its recorded MAX SOLUBILITY | Brain Levels (nM) + CsA | mean value.
experiment: BUI#77: IN VIVO: IV BRAIN LEVELS @ 1 HOUR post 1 mL x 1 min IV
Structures can show the parent of a compound that is named as a salt.

Query block: Entry CC(C)C[C@@H](N)C(=O)N[C@H](Cc1c(F)c(F)c(F)c(F)c1F)C(=O)N[C@H](Cc1ccccc1)C(=O)N[C@@H](C(=O)N[C@H](CC(C)C)C(N)=O)C(C)C [PPI-1324, TFA.H-(l-[F5]f-fvl)-NH2] : reported MAX SOLUBILITY | Brain Levels (nM) + CsA | mean = ?
Result block: 23 nM

Query block: Value lookup for MAX SOLUBILITY | Brain Levels (nM) + CsA | mean; key = CC(C)C[C@@H](N)C(=O)N[C@H](Cc1ccccc1)C(=O)N[C@H](Cc1ccccc1)C(=O)N[C@@H](C(=O)N[C@H](CC(C)C)C(N)=O)C(C)C [578 | 578, TFA. H-(lffvl)-NH2]
Result block: 57 nM

Query block: GET /values?readout=MAX SOLUBILITY | Brain Levels (nM) + CsA | mean&item= CC(C)C[C@@H](N)C(=O)N[C@@H](C(=O)N[C@H](Cc1ccccc1)C(=O)N[C@H](Cc1ccccc1)C(=O)N[C@H](C)C(N)=O)C(C)C [655 | 655, TFA. H-(lvffa)-NH2]
Result block: 50 nM

Query block: Which MAX SOLUBILITY | Brain Levels (nM) + CsA | mean value belongs to CN[C@H](CC(C)C)C(=O)N[C@@H](C(=O)N[C@H](Cc1ccccc1)C(=O)N[C@H](Cc1ccccc1)C(=O)N[C@H](C)C(N)=O)C(C)C [1019 | 1019, TFA. N-methyl-(lvffa)-NH2] ?
Result block: 29 nM
